- TEST_TARGET: Sodium-dependent dopamine transporter (Rattus norvegicus)
- Sequence (P23977 whole entry): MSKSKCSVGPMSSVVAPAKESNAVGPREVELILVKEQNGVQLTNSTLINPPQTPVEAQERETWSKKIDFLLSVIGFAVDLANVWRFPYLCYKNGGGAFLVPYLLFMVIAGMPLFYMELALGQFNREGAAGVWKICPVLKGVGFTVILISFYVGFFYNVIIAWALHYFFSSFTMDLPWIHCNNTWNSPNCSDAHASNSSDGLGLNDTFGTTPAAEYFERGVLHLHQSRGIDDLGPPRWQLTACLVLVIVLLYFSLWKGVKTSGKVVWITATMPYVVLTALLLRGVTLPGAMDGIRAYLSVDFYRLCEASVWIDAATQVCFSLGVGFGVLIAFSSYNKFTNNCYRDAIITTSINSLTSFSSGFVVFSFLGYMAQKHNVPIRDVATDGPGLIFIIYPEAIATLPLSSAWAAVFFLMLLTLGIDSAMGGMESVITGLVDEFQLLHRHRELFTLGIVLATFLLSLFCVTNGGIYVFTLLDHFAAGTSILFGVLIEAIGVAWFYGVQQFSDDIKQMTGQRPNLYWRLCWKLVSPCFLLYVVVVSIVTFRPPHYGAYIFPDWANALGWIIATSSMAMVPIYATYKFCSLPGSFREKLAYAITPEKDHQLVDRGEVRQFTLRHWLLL
PROPERTY_MEASURED: pKi
Please treat pKi as minus the base-10 logarithm of the molar concentration.

// worked examples, pKi included
CN1CCC(C(=O)OCc2ccc3ccccc3c2)(c2ccc(Cl)c(Cl)c2)CC1 ... 5.31
CCOC(=O)C1(c2ccc(I)cc2)CCNCC1 ... 5.46
O=C(OCc1ccc(Cl)c(Cl)c1)C1(c2ccc3ccccc3c2)CCNCC1 ... 5.49

**Query** Sodium-dependent dopamine transporter (Rattus norvegicus) / pKi / O=C(OCc1ccccc1)C1(c2ccc(Cl)c(Cl)c2)CCNCC1 : value?
**Result** 6.04

**Query** Param readout = pKi; param system = Sodium-dependent dopamine transporter (Rattus norvegicus); param query = CCOC(=O)C1(c2ccc(-c3ccccc3)cc2)CCNCC1 ; response: value
**Result** 5.49

**Query** Please state recorded pKi (tested on Sodium-dependent dopamine transporter (Rattus norvegicus)) of COc1ccc(COC(=O)C2(c3ccc(Cl)c(Cl)c3)CCN(C)CC2)cc1
**Result** 5.55

**Query** For Sodium-dependent dopamine transporter (Rattus norvegicus), provide pKi of COc1ccc(COC(=O)C2(c3ccc(Cl)c(Cl)c3)CCNCC2)cc1 please.
**Result** 5.90

**Query** Notebook entry, Sodium-dependent dopamine transporter (Rattus norvegicus) assay: pKi of O=C(OCc1ccccc1)C1(c2ccc(-c3ccccc3)cc2)CCNCC1 = ?
**Result** 5.96

**Query** Notebook: pull reported pKi for Sodium-dependent dopamine transporter (Rattus norvegicus), entry O=C(OCc1ccc(C(F)(F)F)cc1)C1(c2ccc(Cl)c(Cl)c2)CCNCC1
**Result** 5.65

**Query** Observed pKi on Sodium-dependent dopamine transporter (Rattus norvegicus) for CN1CCC(C(=O)OCc2ccccc2)(c2ccc(-c3ccccc3)cc2)CC1 , please.
**Result** 5.64

**Query** Could you share what pKi was measured for CN1CCC(C(=O)OCc2ccc(I)cc2)(c2ccc(Cl)c(Cl)c2)CC1 , tested on Sodium-dependent dopamine transporter (Rattus norvegicus)?
**Result** 5.46

**Query** # get_value(readout= pKi, system= Sodium-dependent dopamine transporter (Rattus norvegicus)) for CN1CCC(C(=O)OCc2ccccc2)(c2ccc(Cl)c(Cl)c2)CC1
**Result** 5.53

**Query** What value of pKi on Sodium-dependent dopamine transporter (Rattus norvegicus) does O=C(OCc1ccc(Cl)c(Cl)c1)C1(c2ccc(I)cc2)CCNCC1 have?
**Result** 5.36

**Query** pKi of CN1CCC(C(=O)OCc2ccc([N+](=O)[O-])cc2)(c2ccc(Cl)c(Cl)c2)CC1 on Sodium-dependent dopamine transporter (Rattus norvegicus)?
**Result** 5.82
